System: P.A.F.-induced aggregation of blood platelets
Experiment: anti-P.A.F. action in vitro (P.A.F.-induced platelet aggregation)
Format: cell-based
Conditions: Oryctolagus cuniculus, 10^-5 mole/liter, read-out: Anti-P.A.F. activity in vitro, % inhibition of the P.A.F.-induced aggregation of blood platelets from rabbit blood
REPORTED_METRIC: inhibition at 10 µM (%)
Kindly answer with a numeric value in %, unit omitted.

Cc1cc(-c2c(C)c3cccc4c3n2CC(CCCCN2CCN(c3ccccn3)CC2)O4)cc(C)c1O (stereo not shown) [Example 65]
52

[ask] Record request: inhibition at 10 µM value, item Cc1ccnc(N2CCN(C(=O)CC3Cn4c(-c5ccc(O)cc5)c(C)c5cccc(c54)O3)CC2)c1 (stereo not shown) [Example 17]
[reply] 99

[ask] Now give it for Cc1ccnc(N2CCN(CCCCC3Cn4c(-c5cc(C)c(O)c(C)c5)c(C)c5cccc(c54)O3)CC2)c1 (stereo not shown) [Example 18] too.
[reply] 78

[ask] Now give it for Cc1ccc(N2CCN(C(=O)CCC3Cn4c(-c5ccc(O)cc5)c(C)c5cccc(c54)O3)CC2)nc1 (stereo not shown) [Example 34] too.
[reply] 77

[ask] Now give it for Cc1ccnc(N2CCN(CCCC3Cn4c(-c5cc(C)c(O)c(C)c5)c(C)c5c(F)ccc(c54)O3)CC2)c1 (stereo not shown) [Example 29] too.
[reply] 50

[ask] Now give it for Cc1ccnc(N2CCN(CCC3Cn4c(-c5ccc(O)cc5)c(C)c5cccc(c54)O3)CC2)c1 (stereo not shown) [Example 2] too.
[reply] 97

[ask] Now give it for COc1ccc2c3c1c(C)c(-c1ccc(O)cc1)n3CC(CCN1CCN(c3cc(C)ccn3)CC1)O2 (stereo not shown) [Example 3] too.
[reply] 92

---

Tested on: P.A.F.-induced aggregation of blood platelets
Test: anti-P.A.F. action in vitro (P.A.F.-induced platelet aggregation)
Assay type: cell-based
Settings: Oryctolagus cuniculus, 10^-5 mole/liter, read-out: Anti-P.A.F. activity in vitro, % inhibition of the P.A.F.-induced aggregation of blood platelets from rabbit blood
inhibition at 10 µM by entry:
Kindly answer with a numeric value in %, unit omitted.

Answered examples (3):
Cc1ccnc(N2CCN(C(=O)CCC3Cn4c(-c5ccc(O)cc5)c(C)c5c(O)ccc(c54)O3)CC2)c1 (stereo not shown) [Example 69]
97
Cc1ccnc(N2CCN(CCC3Cn4c(-c5ccc(O)cc5)c(C)c5c(Cl)ccc(c54)O3)CC2)c1 (stereo not shown) [Example 19]
71
Cc1ccnc(N2CCN(C(=O)CCC3Cn4c(-c5cc(C)c(O)c(C)c5)c(C)c5c(O)ccc(c54)O3)CC2)c1 (stereo not shown) [Example 67]
97

[ask] Look up inhibition at 10 µM with P.A.F.-induced aggregation of blood platelets for this compound: Cc1ccnc(N2CCN(CCC3Cn4c(-c5cc(C)c(O)c(C)c5)c(C)c5cccc(c54)O3)CC2)c1 (stereo not shown) [Example 20]
[reply] 92

---

System: P.A.F.-induced aggregation of blood platelets
Assay: anti-P.A.F. action in vitro (P.A.F.-induced platelet aggregation)
Assay type: cell-based
Conditions: Oryctolagus cuniculus, 10^-5 mole/liter, read-out: Anti-P.A.F. activity in vitro, % inhibition of the P.A.F.-induced aggregation of blood platelets from rabbit blood
REPORTED_METRIC: inhibition at 10 µM

Answered examples (2):
Cc1cccnc1N1CCN(C(=O)CCC2Cn3c(-c4ccc(O)cc4)c(C)c4cccc(c43)O2)CC1 (stereo not shown)
48%
Cc1ccnc(N2CCN(C(=O)CCC3Cn4c(-c5cc(C)c(O)c(C)c5)c(C)c5c(F)ccc(c54)O3)CC2)c1 (stereo not shown)
65%

[ask] Record request: inhibition at 10 µM value, item COc1ccc(-c2c(C)c3c(F)ccc4c3n2CC(CCN2CCN(c3cc(C)ccn3)CC2)O4)cc1 (stereo not shown)
[reply] 65%

[ask] Now give it for Cc1ccnc(N2CCN(CCC3Cn4c(-c5cc(C)c(O)c(C)c5)c(C)c5c(F)ccc(c54)O3)CC2)c1 (stereo not shown) too.
[reply] 83%

[ask] Now give it for Cc1c(-c2ccc(O)cc2)n2c3c(cccc13)OC(CCN1CCN(c3ccccn3)CC1)C2 (stereo not shown) too.
[reply] 69%

[ask] Now give it for COc1ccc(-c2c(C)c3cccc4c3n2CC(CN2CCN(c3cc(C)ccn3)CC2)O4)cc1 (stereo not shown) too.
[reply] 100%

[ask] Now give it for Cc1cc(-c2c(C)c3c(O)ccc4c3n2CC(CCC(=O)N2CCN(c3ccccn3)CC2)O4)cc(C)c1O (stereo not shown) too.
[reply] 84%
